biological target: T1, apical domain of human CD71 (human, UniProt P02786 189-383, limits assumed); experiment: primary ELISA, RLU over HSA
T1 construct: domain: apical domain; Screen 4 panned on human apical domains, the ELISA text says only 'apical domain'
T1 sequence (P02786 189-383 limits assumed): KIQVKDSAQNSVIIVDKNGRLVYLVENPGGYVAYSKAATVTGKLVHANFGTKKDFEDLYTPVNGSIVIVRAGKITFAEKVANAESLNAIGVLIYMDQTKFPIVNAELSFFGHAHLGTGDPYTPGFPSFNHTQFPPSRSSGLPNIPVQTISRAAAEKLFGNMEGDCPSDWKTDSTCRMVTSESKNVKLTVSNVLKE
We use 200 as the dividing line for Apical domain:HSA: on or above the line is t, below is f.

1. CD71-binding FN3 domain of SEQ ID NO: 487 (designed binder) MLPAPKNLVVSRVTEDSARLSWTAPDAAFDSFFIGYLEPQPPGEAIGLRVPGSERSYDLTGLKPGTEYNVTIQGVKGGFPSEPLIADFTT = t
2. CD71-binding FN3 domain of SEQ ID NO: 457 (designed binder) MLPAPKNLVVSRVTEDSARLSWTAPDAAFDSFFIGYLEPQPPGEAIVLLVPGSERSYDLTGLKPGTEYNVTIQGVKGGFPSAPLVATFTT = f
3. CD71-binding FN3 domain of SEQ ID NO: 485 (designed binder) MLPAPKNLVVSRVTEDSARLSWTAPDAAFDSFFIGYLEPQPPGEAIHLWVPGSERSYDLTGLKPGTEYNVTIQGVKGGFPSLPLLAKFTT = f
4. CD71-binding FN3 domain of SEQ ID NO: 495 (designed binder) MLPAPKNLVVSRVTEDSARLSWTAPDAAFDSFFINYREDKWIGEAIVLTVPGSERSYDLTGLKPGTEYSVPIDGVKGGAASPPLSAIFTT = t
5. CD71-binding FN3 domain of SEQ ID NO: 484 (designed binder) MLPAPKNLVVSRVTEDSARLSWTAPDAAFDSFEIAYQELSLWGEAIVLTVPGSERSYDLTGLKPGTEYYVHIGGVKGGIWSSPLSAISTT = f
6. CD71-binding FN3 domain of SEQ ID NO: 482 (designed binder) MLPAPKNLIVSRVTEDSARLSWTAPDAAFDSFFIGYLEPQPPGEAIHLQVPGSERSYDLTGLKPGTEYNVTIQGVKGGFPSNPLHAEFTT = t
7. CD71-binding FN3 domain of SEQ ID NO: 521 (designed binder) MLPAPKNLVVSRVTEDSARLSWTAPDAAFDSFFIGYLEPQPPGEAIVLWVPGSERSYDLTGLKPGTEYNVTIQGVKGGFPSHPLVAHFTT = f
8. CD71-binding FN3 domain of SEQ ID NO: 500 (designed binder) MLPAPKNLVVSRVTEDSARLSWTAPDAAFDSFFIGYLEPQPPGEAIDLLVPGSERSYDLTGLKPGTEYNVTIQGVKGGFPSMPLSAIFTT = f
9. CD71-binding FN3 domain of SEQ ID NO: 508 (designed binder) MLPAPKNLVVSRVTEDSARLSWTAPDAAFDSFFIGYLEPQPPGEAITLSVPGSERSYDLTGLKPGTEYNVTIQGVKGGFPSEPLIAIFTT = t

Recorded values, source patent US20260151494A1.
